- Test system: SN12C
- assay_method_text: NCI tumour cell line growth inhibition, 48 h
Activity calls are given as the source filed them. Rule as the data show it: active = GI50 up to about 1.1 µM and inactive = higher.
// one of true (1) (active), false (0) (inactive), no free text

These recorded examples may help you get a feel for the data.
C=C1C(=O)O[C@@H]2C[C@@H](C)[C@@H]3C=CC(=O)[C@@]3(C)[C@@H](OC(=O)CC(=O)O[C@H]3[C@@H]4C(=C)C(=O)O[C@@H]4C[C@@H](C)[C@@H]4C=CC(=O)[C@]43C)[C@H]12	true (1)
CCOc1ccccc1NC(=O)C(=O)CC(=O)c1c(C)[n+]([O-])c2ccccc2[n+]1[O-]	false (0)
COc1ccc2cc(Oc3ccc(Cl)cc3)c(=O)oc2c1	false (0)
COC1=CC(=O)c2c(c(COP(=O)(N(C)CCBr)N(C)CCBr)cn2C)C1=O	true (1)
Cn1c(=O)n2c(=O)n(C)c(=O)n2c1=O	false (0)
Brc1ccc(N2C[N+](c3ccc(Br)cc3)=NC(c3ccccc3)=N2)cc1	false (0)
COc1ccc2c(c1)OCC1Cc3cc4c(cc3OC21)OCO4 (centres undefined)	false (0)
COc1ccccc1NC(=O)C1=C(C)NC(C)=C(C(=O)Nc2ccccc2OC)C1c1ccccc1OC	false (0)

Okay, now this molecule:
Qu. Dear all, I need the recorded test outcome for COCc1nc2c(OC)c(-c3nc4ccc(N5CCN(C)CC5)nc4[nH]3)cc(OC)c2[nH]1 , thank you.
Ans. false (0)

* * *

- System: SK-MEL-28
- assay_method_text: NCI tumour cell line growth inhibition, 48 h
Activity calls are given as the source filed them. Rule as the data show it: active = GI50 up to about 1.1 µM and inactive = higher.
assay_endpoint: GI50

Consider the worked cases shown below.
O=C(CCO)OCCCCCC/C=C\CCCCCC/C=C\CCCCCCCCOC(=O)CCO	19.5 µM (inactive)
COC(=O)/C=C1\C(=O)C=C2[C@@H]3C[C@H]4C[C@H](CC[C@@]4(C)N21)C3(C)NC(C)=O (some centres not stated)	3.12 µM (inactive)
Cc1nn(C(=O)c2ccccc2O)c2c1C(c1ccco1)SC(=N)N2 (configuration not stated)	6.41 µM (inactive)
Nc1nc(=O)[nH]c2c1cnn2COCCO	37.1 µM (inactive)
CN(C)S(=O)(=O)c1ccc(Nc2ccc(O)c3c2C(=O)c2c([N+](=O)[O-])ccc(O)c2C3=O)cc1	> 100 µM (inactive)
O=C1/C(=C\c2cccc(Oc3ccccc3)c2)SC(c2ccccc2)N1c1ccc(Cl)cc1 (configuration not stated)	64.9 µM (inactive)

Qu. GET /values?readout=GI50&item= COc1ccc(C2C(Cl)C(=O)N2NC(=O)c2ccccc2O)cc1OC (configuration not stated)
Ans. > 100 µM (inactive)

Qu. Look at this molecule and give its reported GI50. CSc1nc(SC)c2c(C)c(Br)[nH]c2n1
Ans. > 100 µM (inactive)

Qu. Which GI50 is reported for this molecule? Cc1ccc(NC(=O)CC2SC(=N)NC2=O)cc1C (configuration not stated)
Ans. > 100 µM (inactive)

Qu. Return reported GI50; argument: CC1CCc2sc3nc(S)n(-c4ccccc4)c(=O)c3c2C1 (configuration not stated)
Ans. 93.1 µM (inactive)

Qu. Suppose we examine the molecule Nc1ncnc2c1ncn2CCCNO ; what GI50 value has been reported?
Ans. > 100 µM (inactive)

Qu. Requested field: GI50. Item: O=C(CC(=O)N1N=C(c2ccccc2)C(/N=N/c2ccc(Cl)cc2)C1=O)Nc1ccccc1Cl (configuration not stated)
Ans. 20.6 µM (inactive)

Qu. Which GI50 is listed for NC(=O)ON=C1CCN(Cc2ccccc2)CC1 ?
Ans. > 100 µM (inactive)

* * *

- Tested on: HCT-15
assay_endpoint: GI50

Qu. Find GI50 (HCT-15) for the entry CCOC(=O)Nc1cc2c(c(N)n1)N=C(c1ccc(OC)cc1)CN2
Ans. 0.000621 µM

Qu. So what GI50 did NC(=S)N/N=C1\CCCC\C1=C/c1ccccc1 get with HCT-15?
Ans. 67.1 µM

Qu. Report GI50 for O=S1(=O)c2ccccc2N2CCCc3cc(Cl)cc1c32 tested on HCT-15.
Ans. > 100 µM

* * *

- System: SK-MEL-2
- assay_method_text: NCI tumour cell line growth inhibition, 48 h
Active and inactive are the calls of the source. Cut-off read from the data, not from the text of the source: active = GI50 up to about 1.1 µM and inactive = higher.
Answer with one of the outcomes true (1) (active), false (0) (inactive)

Take a look at these entries with their results.
COC(=O)/C=C1\C(=O)C=C2[C@@H]3C[C@H]4C[C@H](CC[C@@]4(C)N21)C3(C)NC(C)=O (stereo partly specified)	false (0)
O=C(CCO)OCCCCCC/C=C\CCCCCC/C=C\CCCCCCCCOC(=O)CCO	false (0)
COc1cccc2c1OCC1Cc3ccccc3OC21 (stereo unspecified)	false (0)
COC(=O)C1C(=O)N(CCc2c[nH]c3ccccc23)C[C@@H]2CCC(=O)C[C@H]12 (stereo partly specified)	false (0)
N=C(N)NS(=O)(=O)c1ccc(Nc2c3ccccc3nc3c(C(=O)NNCCO)cccc23)cc1	true (1)
CN(C)CCCNC(=O)c1cc(NS(=O)(=O)c2ccc3c(c2)C(=O)c2ccccc2C3=O)cn1C	false (0)
Cc1oc(N)c(S(=O)(=O)c2ccc(Cl)cc2)c1C	false (0)
COc1ccc(Nc2nc3ccccc3nc2-c2cccs2)cc1OC	false (0)
COc1cc2c(c(O)c1OC)C(=O)[C@@H]1CCC(=O)N1C2c1ccccc1 (stereo partly specified)	false (0)
NS(=O)(=O)c1c(O)c2ccccc2oc1=O	false (0)

Qu. For this compound, state the assay outcome: O=C1c2ccccc2C(=O)N1CCCCCCNOCCCN1C(=O)c2ccccc2C1=O
Ans. false (0)

Qu. Answer briefly: the call reported for O=C1c2ccccc2C(=O)c2[nH]c(Cc3ccccc3F)nc21 in this assay.
Ans. false (0)

Qu. Fill in: this test's call for CN1CC[C@]2(c3cccc(O)c3)CC(=O)/C(=C/c3ccccc3)[C@@H]1C2.[O-][Cl+3]([O-])([O-])O is ___
Ans. false (0)

Qu. Hi, do you know how Oc1ccc(Br)cc1/C=N/c1cccc(C(F)(F)F)c1 came out in this test?
Ans. false (0)

* * *

- System: RPMI-8226
- assay_method_text: NCI tumour cell line growth inhibition, 48 h
Calls of active or inactive are those of the source. Rule as the data show it: active = GI50 up to about 1.1 µM and inactive = higher.
GI50 values for the compounds below.

Known GI50 results, listed for orientation:
CC1(C)CCOC(Sc2ccccc2)C1 (stereo unspecified)	18.3 µM (inactive)
CN1C(=O)C(O)CC1c1cccc(F)c1 (stereo unspecified)	> 100 µM (inactive)

Let us examine a further case.
Qu. Consider the compound shown here: C/C=C\C(CC(=O)OC)CC(=O)N(CCC1CN(S(=O)(=O)C(F)(F)F)c2ccccc21)Cc1ccc(OC)cc1OC (stereo unspecified) What is its recorded GI50?
Ans. 61.7 µM (inactive)

* * *

- Tested on: SK-MEL-5
- assay_method_text: NCI tumour cell line growth inhibition, 48 h
The source made the active and inactive calls. Rule as the data show it: active = GI50 up to about 1.1 µM and inactive = higher.
Pick from t (active), f (inactive) when you respond.

CCOC(=O)C1N(S(=O)(=O)c2ccc(C)cc2)CCC12c1ccccc1N(C(C)=O)C2C(/C=C/C(=O)OC)=C/C(=O)OC (stereo unspecified)	f
CC1(C)OCC(C2OC(N3O[C@H](CI)C[C@@H]3c3ccccc3)C3OC(C)(C)OC23)O1 (stereo partly specified)	f
COC(=O)c1c/c(=N\NC(=O)CC(=O)Nc2ccccc2OC)c2ccccc2o1	f
CN1C(=O)C(O)CC1c1cccc(F)c1 (stereo unspecified)	f
Cc1occc1C(=S)Nc1ccc(Cl)c(C(=O)OC(C)C2CC2)c1 (stereo unspecified)	f

Qu. Dear colleague, could you share the recorded outcome for CNC(=S)N/N=C(C)\C(=N/NC(=S)NC)c1ccccc1 when you have a moment?
Ans. f

Qu. Assay outcome for Cn1nc2c(c1N)Cc1c(nn(C)c1N)-c1ccccc1-2 : what was it?
Ans. f

Qu. // outcome(item) with item = NCCP(=O)(O)O
Ans. f

Qu. Recorded test outcome, item Nc1nc(=O)[nH]c2c1cnn2COCCO
Ans. f

Qu. What classification did Nc1nc(O)nc2sc3c(c12)CCCC3 end up with in this test?
Ans. f

Qu. Entry c1ccc(/C(=N/Nc2ccccn2)c2ncccn2)cc1 : call = ?
Ans. t

* * *

- Test system: K562
- assay_method_text: NCI tumour cell line growth inhibition, 48 h
Activity calls are given as the source filed them. No stated cut-off is given here; in the data, active = GI50 up to about 1.1 µM and inactive = higher.
assay_endpoint: GI50

CCOC(=O)c1oc2ccc([N+](=O)[O-])c3c2c1CCC3	> 69.7 µM (inactive)
Nc1ccc(Oc2ccc(C34CC5CC(C3)CC(c3ccc(Oc6ccc(N)c(O)c6)cc3)(C5)C4)cc2)cc1O	3.3 µM (inactive)
CC1=C(C(=O)OC2CC3CCC2(C)C3(C)C)C2Nc3ccccc3N(C)C2O1 (stereo not given)	3.66 µM (inactive)
O=[N+]([O-])c1nc(-c2ccccn2)[nH]c1[N+](=O)[O-]	> 100 µM (inactive)

Qu. Checklist item: GI50 tested on K562, entry CC1C=C(CCCCCCCCCCCC[C@@H](O)[C@@H]2CC[C@@H]([C@@H]3CC[C@@H](C(O)CCCCCCCCCCCCC4=C[C@H](C)OC4=O)O3)O2)C(=O)O1 (stereo not given in full) , value?
Ans. 0.993 µM (active)

Qu. Kindly state the measured GI50 obtained for O=C(CC(=O)N1N=C(c2ccccc2)C(/N=N/c2ccc(Cl)cc2)C1=O)Nc1ccccc1Cl (stereo not given) with K562.
Ans. 36.7 µM (inactive)

Qu. Request body: readout GI50, system K562, query NC(=O)c1c2c(cc3c(=O)c4ccccc4[nH]c13)CCCC2 . Return the value.
Ans. > 65.2 µM (inactive)

Qu. Entry CC1CC[C@]2(C(=O)O)CCC3(COC(=O)/C=C\c4ccc(O)cc4)C(=CCC4[C@@]5(C)CC[C@H](O)C(C)(C)C5CC[C@]43C)[C@@H]2[C@H]1C (stereo not given in full) , system K562: what GI50 was measured?
Ans. 13 µM (inactive)

Qu. Value wanted: GI50 (K562) of entry C=CC(=C)CCC(Br)C(C)(C)Cl (stereo not given)
Ans. > 100 µM (inactive)

Qu. Notebook: pull reported GI50 for K562, entry CC(=O)Oc1c(N2CCCCC2)c(C(=O)c2ccccc2)c(O)c2ccn(N(C)C)c12
Ans. 34.4 µM (inactive)

Qu. Find GI50 (K562) for the entry O=C1c2ccccc2C(=O)c2[nH]c(Cc3ccccc3F)nc21
Ans. > 100 µM (inactive)

Qu. What is its GI50 for K562? Entry: Cn1c(=O)nc2n(-c3cccc(F)c3)c3ccccc3nc-2c1=O
Ans. 19.6 µM (inactive)

Qu. Please state recorded GI50 (tested on K562) of COc1ccc(/C=c2/sc3n(c2=O)NC2(CCCCC2)NN=3)cc1
Ans. > 100 µM (inactive)

Qu. Give K562 GI50 for COC(=O)C(Cc1nc2ccccc2nc1O)C(NO)C(=O)Nc1c(Cl)cc([N+](=O)[O-])cc1Cl (stereo not given)
Ans. 40.8 µM (inactive)

Qu. Request: GI50, test system K562, entry N#CC(C#N)=c1[nH]c2cccc3c2-c2c(cccc2c3=C(C#N)C#N)[nH]1
Ans. > 100 µM (inactive)

Qu. Item CCCCCCCCC/C=C1\CCC(CN(C)C)C1=O (stereo not given) with K562 - GI50?
Ans. 1.86 µM (inactive)

Qu. Report GI50 for CC1(C)N=C(N)N=C(N)N1c1ccc(CCCCc2ccc(Cl)cc2Cl)cc1 tested on K562.
Ans. 42.2 µM (inactive)

Qu. Recall the recorded GI50 for CC1C2(C)OC(=N)C(C#N)(C(c3ccccc3)O2)C1(C#N)C#N (stereo not given) with K562 and state it.
Ans. 25.1 µM (inactive)
